The measurements presented in this section are drawn from ChEMBL document CHEMBL5331073.

- ASSAY_METHOD_TEXT: Protein binding in Beagle dog plasma at 1 uM incubated for 6 hrs by dialysis based LC-MS/MS analysis
- Format: ADME, cell-free, Canis lupus familiaris
- ASSAY_CONTEXT: read-out: PPB (converted)
METRIC_NAME: fraction unbound at 6 h, 1 µM

[a] C[C@@H]1COCCN1c1nc(-c2cccc3[nH]ccc23)nc2c1CN(C(=O)c1ccc3c(c1)OCO3)C2(C)C
[b] C[C@@H]1COCCN1c1nc(-c2cccc3[nH]ccc23)nc2c1CN(C(=O)c1cccc(S(C)(=O)=O)c1)C2(C)C
Compare fraction unbound at 6 h, 1 µM: is it lower for a or for b ? Give the label under which the chosen entry appears.
a

====

- TARGET_OR_SYSTEM: Cytochrome P450 3A4 (Homo sapiens, UniProt P08684)
- Sequence (P08684 whole entry): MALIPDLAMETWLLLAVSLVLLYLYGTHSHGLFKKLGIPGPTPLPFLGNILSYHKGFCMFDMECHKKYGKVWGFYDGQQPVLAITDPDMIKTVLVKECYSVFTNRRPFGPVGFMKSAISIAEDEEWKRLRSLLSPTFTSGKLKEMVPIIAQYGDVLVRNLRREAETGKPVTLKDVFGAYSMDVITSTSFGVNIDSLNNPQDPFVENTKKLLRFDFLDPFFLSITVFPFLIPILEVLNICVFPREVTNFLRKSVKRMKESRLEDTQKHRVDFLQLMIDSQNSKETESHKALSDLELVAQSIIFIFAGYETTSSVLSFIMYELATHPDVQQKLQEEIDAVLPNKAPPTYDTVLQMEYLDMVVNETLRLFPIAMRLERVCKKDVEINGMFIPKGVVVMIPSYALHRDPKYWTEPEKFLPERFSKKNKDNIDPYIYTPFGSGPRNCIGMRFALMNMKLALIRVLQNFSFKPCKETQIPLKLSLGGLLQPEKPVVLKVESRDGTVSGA
- ASSAY_METHOD_TEXT: Inhibition of CYP3A4 in human liver microsomes using […] as substrate preincubated for 5 mins followed by NADPH addition and measured after 120 mins by LC-MS/MS analysis
- Assay type: ADME, Microsome
METRIC_NAME: IC50 (µM)

[1] C[C@@H]1COCCN1c1nc(-c2cccc3[nH]ccc23)nc2c1CN(C(=O)c1cccc(S(C)(=O)=O)c1)C2(C)C
[2] C[C@@H]1COCCN1c1nc(-c2cccc3[nH]ccc23)nc2c1CN(C(=O)c1ccc3c(c1)OCO3)C2(C)C
Could you tell me which of these two has the smaller IC50 figure? First: 1 Second: 2 Response format: the label of the selected entry.
2
(2: 1 µM, 1: 10 µM)

====

- ASSAY_METHOD_TEXT: in vitro
- ASSAY_CONTEXT: rat, liver microsomes
METRIC_NAME: half-life at 1 h, 1 µM (min)

Previously resolved entries follow.
- SMILES_STRUCTURE: "C[C@@H]1COCCN1c1nc(-c2cccc3[nH]ccc23)nc2c1CCN(C(=O)c1ccccc1)C2(C)C"
  half-life at 1 h, 1 µM [min]: 38.2
- SMILES_STRUCTURE: "COc1ccc(C(=O)N2Cc3c(N4CCOC[C@H]4C)nc(-c4cccc5[nH]ccc45)nc3C2(C)C)cc1"
  half-life at 1 h, 1 µM [min]: 18.1

[A] CC(=O)N1CCc2c(N3CCOC[C@H]3C)nc(-c3cccc4[nH]ccc34)nc2C1(C)C
[B] COc1cccc(C(=O)N2Cc3c(N4CCOC[C@H]4C)nc(-c4cccc5[nH]ccc45)nc3C2(C)C)c1
When A and B are compared, which has the higher number for half-life at 1 h, 1 µM? Write down the label of the entry you select.
B

====

- ASSAY_METHOD_TEXT: in vitro
- ASSAY_CONTEXT: rat, liver microsomes
METRIC_NAME: CLint scaled at 1 h, 1 µM (mL/min/kg)

Solved cases (3 shown):
- SMILES_STRUCTURE: "C[C@@H]1COCCN1c1nc(-c2cccc3[nH]ccc23)nc2c1CN(C(=O)c1cccc(S(C)(=O)=O)c1)C2(C)C"
  OBSERVED_MEASUREMENT: 119
- SMILES_STRUCTURE: "COc1ccc(C(=O)N2Cc3c(N4CCOC[C@H]4C)nc(-c4cccc5[nH]ccc45)nc3C2(C)C)cc1"
  OBSERVED_MEASUREMENT: 138
- SMILES_STRUCTURE: "CC(C)C(=O)N1CCc2c(N3CCOC[C@H]3C)nc(-c3cccc4[nH]ccc34)nc2C1(C)C"
  OBSERVED_MEASUREMENT: 232

[I] C[C@@H]1COCCN1c1nc(-c2cccc3[nH]ccc23)nc2c1CCN(C(=O)c1cccc(F)c1)C2(C)C
[II] C[C@@H]1COCCN1c1nc(-c2cccc3[nH]ccc23)nc2c1CCN(C(=O)c1ccccc1)C2(C)C
[III] CCC(=O)N1CCc2c(N3CCOC[C@H]3C)nc(-c3cccc4[nH]ccc34)nc2C1(C)C
[IV] COc1cccc(C(=O)N2Cc3c(N4CCOC[C@H]4C)nc(-c4cccc5[nH]ccc45)nc3C2(C)C)c1
[V] C[C@@H]1COCCN1c1nc(-c2cccc3[nH]ccc23)nc2c1CN(C(=O)c1ccc(S(C)(=O)=O)cc1)C2(C)C
Give the ascending ranking of the items by reported CLint scaled at 1 h, 1 µM. # list labels per requested ordering
V, IV, II, I, III
